Data origin: ChEMBL document CHEMBL4616709

Tested on: Mus musculus
TEST METHOD NOTES: Antinociceptive activity in ICR mouse model of chronic constriction injury-induced neuropathic pain assessed as inhibition of mechanical allodynia at 10 umol/kg, ip administered 7 days post-surgery and measured after 2 hrs post-dose by Von Frey assay relative to control
Format: functional
PROPERTY: inhibition in vivo at 10 µmol/kg (%)
Express it in %; write the number only.

Task: Provide value of inhibition in vivo at 10 µmol/kg for this record tested with Mus musculus: O=C(O)c1cc(-c2ccc(C3CCNCC3)cc2)cc(-n2cc(-c3ccc(C(F)(F)F)cc3)nn2)c1
Output: 57.2

Task: Param item: C#CCCCCN1CCC(c2ccc(-c3cc(C(=O)O)cc4cc(-c5ccc(C(F)(F)F)cc5)ccc34)cc2)CC1
Output: 42.7

Task: Another compound: O=C(O)c1cc(-c2ccc(C3CCNCC3)cc2)cc(-c2cn(-c3ccc(C(F)(F)F)cc3)nn2)c1
Output: 71.4
